# Assayed System: PmSiaT (Proteus mirabilis, UniProt B4EZY7)
# Construct: made in house
# Sequence (B4EZY7 whole entry): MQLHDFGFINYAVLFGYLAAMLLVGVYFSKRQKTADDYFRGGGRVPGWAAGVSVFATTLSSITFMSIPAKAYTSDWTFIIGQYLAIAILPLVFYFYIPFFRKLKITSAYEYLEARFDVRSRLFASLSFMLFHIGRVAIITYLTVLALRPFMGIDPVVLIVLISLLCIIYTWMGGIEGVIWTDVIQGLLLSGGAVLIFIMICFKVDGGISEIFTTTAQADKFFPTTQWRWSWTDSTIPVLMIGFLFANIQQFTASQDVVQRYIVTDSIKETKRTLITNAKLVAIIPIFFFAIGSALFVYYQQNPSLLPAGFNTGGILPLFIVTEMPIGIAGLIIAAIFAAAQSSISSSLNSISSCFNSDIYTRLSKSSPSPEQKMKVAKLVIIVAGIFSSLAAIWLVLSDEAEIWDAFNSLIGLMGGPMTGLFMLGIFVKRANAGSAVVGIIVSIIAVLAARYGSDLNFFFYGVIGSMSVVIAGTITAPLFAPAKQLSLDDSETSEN
# Test Method Notes: Isothermal titration calorimetry, PmSiaT
# Type: binding
# Details: ITC
// reported PmSiaT ΔH° per item
Give the value in kJ/mol but do not write kJ/mol after it.

Here's what some known entries look like.
Fill in the blank: the reported PmSiaT ΔH° of CC(=O)NC1C(OCc2cc(Br)cc(Br)c2)CC(O)(C(=O)O)OC1C(O)C(O)CO (stereo not shown) is ____. 37.1

Sample CC(=O)NC1C(OCc2ccccc2)CC(O)(C(=O)O)OC1C(O)C(O)CO (stereo not shown) — what was its PmSiaT ΔH°? 29.3

# query: PmSiaT ΔH° of entry CC(=O)NC1C(OCc2cc(F)cc(F)c2)CC(O)(C(=O)O)OC1C(O)C(O)CO (stereo not shown) 35.9

Further cases:
What does the record list as PmSiaT ΔH° for CC(=O)N[C@H]1[C@H]([C@H](O)[C@H](O)CO)OC(O)(C(=O)O)C[C@@H]1O (stereo partly shown) [Neu5Ac, 5-N-acetyl neuraminic acid, reference compound] ? 28.1
